Would you kindly list LC retention time for each of these compounds?
# assay_details: RP, Waters ACQUITY UPLC HSS T3, 150 × 2.1 mm, 1.8 µm, 40 °C, 0.28 mL/min, estimated dead time 1.2 min; A: water + 0.1% formic acid, pH 3; B: methanol + 0.1% formic acid, pH 3; gradient (min/%B) 0/0 1/0 3/10 18/40 21/100 25.5/100 25.6/0 28/0
# experimental_conditions: stereoisomer not certain
Give bare numbers, in min.

COc1cc(C=Cc2ccc(O)cc2)cc(OC)c1 [pterostilbene] | 21.9

Below is a list of compounds. For each, state its recorded LC retention time.
1. O=C1CC(c2ccc(O)cc2)Oc2cc(OC3OC(CO)C(O)C(O)C3O)cc(O)c21 (configuration not stated) [naringenin 7-glucoside]
2. CC1OC(OCC2OC(Oc3c(-c4ccc(O)c(O)c4)oc4cc(O)cc(O)c4c3=O)C(O)C(O)C2O)C(O)C(O)C1O (configuration not stated) [quercetin 3-rutinoside]

1. 19.5
2. 20

Below is a list of compounds. For each, state its recorded LC retention time.
1. CCOc1ccc(NC(C)=O)cc1 [phenacetin]
2. O=C(C=Cc1ccc(O)cc1)OC(C(=O)O)C(O)C(=O)O (stereo not drawn) [trans coutaric acid]
3. CCC(=O)O [proprionic acid]
4. Oc1ccc(C2Oc3ccc(C=Cc4cc(O)cc5c4C(c4cc(O)cc(O)c4)C(c4ccc(O)cc4)O5)cc3C2c2cc(O)cc3c2C(c2cc(O)cc(O)c2)C(c2ccc(O)cc2)O3)cc1 (configuration not stated) [vitisin B]

19.4
10.7
3.95
18.3

###

# assay_details: RP, Waters ACQUITY UPLC HSS T3, 150 × 2.1 mm, 1.8 µm, 40 °C, 0.28 mL/min, estimated dead time 1.2 min; A: water + 0.1% formic acid, pH 3; B: methanol + 0.1% formic acid, pH 3; gradient (min/%B) 0/0 1/0 3/10 18/40 21/100 25.5/100 25.6/0 28/0
# experimental_conditions: stereoisomer not certain
# cutoff 20 min applies to LC retention time; >= gives criterion met, < gives criterion not met

O=C1CC(c2ccc(O)cc2)Oc2cc(O)cc(O)c21 (stereo not drawn) [naringenin] | criterion met

# check: LC retention time of OCC1OC(Oc2cc(O)cc(C=Cc3ccc(O)c(O)c3)c2)C(O)C(O)C1O (stereo not drawn) [astringin] is greater than or equal to 20 min
criterion not met

# check: LC retention time of COc1cc(-c2oc3cc(=O)cc4oc(O)cc(c2OC2OC(CO)C(O)C(O)C2O)c43)cc(OC)c1O (stereo not drawn) [oxovitisin A] is greater than or equal to 20 min
criterion met

# check: LC retention time of O=C(O)CCC(=O)O [succinic acid] is greater than or equal to 20 min
criterion not met

# check: LC retention time of O=C(O)c1cc(O)cc(O)c1 [3,5-dihydroxybenzoic acid] is greater than or equal to 20 min
criterion not met

# check: LC retention time of O=C(CCc1ccc(O)cc1)c1c(O)cc(O)cc1O [phloretin] is greater than or equal to 20 min
criterion met

###

# assay_details: RP, Waters ACQUITY UPLC HSS T3, 150 × 2.1 mm, 1.8 µm, 40 °C, 0.28 mL/min, estimated dead time 1.2 min; A: water + 0.1% formic acid, pH 3; B: methanol + 0.1% formic acid, pH 3; gradient (min/%B) 0/0 1/0 3/10 18/40 21/100 25.5/100 25.6/0 28/0
# experimental_conditions: stereoisomer not certain
Would you kindly list LC retention time for each of these compounds?
One number for each entry, in min.

Some solved entries appear below for comparison.
O=c1c(OS(=O)(=O)O)c(-c2ccc(O)c(O)c2)oc2cc(O)cc(O)c12 [quercetin 3-sulfate] | 20.1
CCOC(=O)c1cc(O)c(O)c(O)c1 [ethyl gallate] | 15.2

Below is a list of compounds. For each, state its recorded LC retention time.
1. Oc1ccc(C2Oc3cc(O)cc4c3C2c2cc(O)cc(O)c2C(c2ccc(O)cc2)C4C2c3cc(O)cc4c3C(c3cc(O)cc(O)c3C2c2ccc(O)cc2)C(c2ccc(O)cc2)O4)cc1 (configuration not stated)
2. O=C1CC(c2ccc(O)c(O)c2)c2c(cc(O)c3c2OC(c2ccc(O)c(O)c2)C(O)C3)O1 (configuration not stated)
3. COc1cc(-c2oc3cc(=O)cc4oc(C)cc(c2OC2OC(CO)C(O)C(O)C2O)c43)cc(OC)c1O (configuration not stated) [methylpyrano malvidin 3-glucoside]

1. 10.7
2. 17.8
3. 19.7

Below is a list of compounds. For each, state its recorded LC retention time.
1. O=c1cc(-c2ccc(O)c(O)c2)oc2cc(OC3OC(CO)C(O)C(O)C3O)cc(O)c12 (configuration not stated) [luteolin 7-glucoside]
2. Oc1cc(O)c2c(c1)OC(c1ccc(O)c(O)c1)C(O)C2c1c(O)cc(O)c2c1OC(c1ccc(O)c(O)c1)C(O)C2 (configuration not stated)

1: 19.7; 2: 9.66
